molecular target: FMS kinase (Homo sapiens)
Sequence (P07333 20-972): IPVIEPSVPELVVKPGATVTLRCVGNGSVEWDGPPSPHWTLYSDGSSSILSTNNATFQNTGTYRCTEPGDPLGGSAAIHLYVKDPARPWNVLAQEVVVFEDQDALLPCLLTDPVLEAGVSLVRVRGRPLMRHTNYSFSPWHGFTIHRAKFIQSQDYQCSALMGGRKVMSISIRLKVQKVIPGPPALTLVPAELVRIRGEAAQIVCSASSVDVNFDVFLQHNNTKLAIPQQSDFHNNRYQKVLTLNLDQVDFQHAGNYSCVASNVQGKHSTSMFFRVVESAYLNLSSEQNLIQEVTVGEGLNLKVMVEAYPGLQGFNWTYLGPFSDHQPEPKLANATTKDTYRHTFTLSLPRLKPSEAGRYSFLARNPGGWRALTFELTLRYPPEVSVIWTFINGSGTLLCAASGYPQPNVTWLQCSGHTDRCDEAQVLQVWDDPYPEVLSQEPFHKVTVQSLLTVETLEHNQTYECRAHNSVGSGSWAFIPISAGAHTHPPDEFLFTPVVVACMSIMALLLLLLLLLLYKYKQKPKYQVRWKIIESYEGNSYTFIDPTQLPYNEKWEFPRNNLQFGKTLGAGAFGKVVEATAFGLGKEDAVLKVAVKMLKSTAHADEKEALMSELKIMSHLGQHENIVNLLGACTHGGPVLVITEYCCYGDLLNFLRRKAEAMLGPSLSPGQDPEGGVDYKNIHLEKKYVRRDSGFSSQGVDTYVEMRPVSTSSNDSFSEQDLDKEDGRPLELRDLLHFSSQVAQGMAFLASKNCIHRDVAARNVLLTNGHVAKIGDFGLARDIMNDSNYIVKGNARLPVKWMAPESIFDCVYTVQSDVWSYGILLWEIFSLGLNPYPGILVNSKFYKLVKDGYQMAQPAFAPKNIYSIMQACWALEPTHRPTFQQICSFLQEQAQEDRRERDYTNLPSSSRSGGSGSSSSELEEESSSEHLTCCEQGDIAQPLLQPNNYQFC
For each record, check the reported IC50: if it is below 90 nM write satisfied, else write not satisfied.

Request: Input `C[C@H]1CC[C@H](n2c(=O)c(C#N)cc3cnc(Nc4cccc(C(N)=O)c4)nc32)CC1` ; condition: IC50 strictly below 90 nM. Does it hold?
Result: satisfied

Request: Input `N#Cc1cc2cnc(NC3CCN(S(=O)(=O)C(F)F)CC3)nc2n(C2CCCC2)c1=O` ; condition: IC50 strictly below 90 nM. Does it hold?
Result: not satisfied

Request: Input `CN(C)S(=O)(=O)N1CCC(Nc2ncc3cc(C#N)c(=O)n(C4CCCC4)c3n2)CC1` ; condition: IC50 strictly below 90 nM. Does it hold?
Result: not satisfied

Request: Input `CS(=O)(=O)N1CCC(Nc2ncc3cc(C#N)c(=O)n(C4CCCCC4)c3n2)CC1` ; condition: IC50 strictly below 90 nM. Does it hold?
Result: not satisfied

Request: Input `CN(C)CCNC(=O)c1cccc(Nc2ncc3cc(C#N)c(=O)n(C4CCCC4)c3n2)c1` ; condition: IC50 strictly below 90 nM. Does it hold?
Result: satisfied

Request: Input `N#Cc1cc2cnc(Nc3cnn(C4CCNCC4)c3)nc2n(C2CCCC2)c1=O` ; condition: IC50 strictly below 90 nM. Does it hold?
Result: satisfied

Request: Input `CN1CCN(CCCn2cc(Nc3ncc4cc(C#N)c(=O)n(C5CCCC5)c4n3)cn2)CC1` ; condition: IC50 strictly below 90 nM. Does it hold?
Result: not satisfied
